The values you see were collected from patent US12649723B2.

Target: CYP2C9 (Homo sapiens, UniProt P11712)
Construct: human liver microsomes (0.25 mg/mL); from tissue; host or cells: human liver microsomes
Sequence (P11712 whole entry): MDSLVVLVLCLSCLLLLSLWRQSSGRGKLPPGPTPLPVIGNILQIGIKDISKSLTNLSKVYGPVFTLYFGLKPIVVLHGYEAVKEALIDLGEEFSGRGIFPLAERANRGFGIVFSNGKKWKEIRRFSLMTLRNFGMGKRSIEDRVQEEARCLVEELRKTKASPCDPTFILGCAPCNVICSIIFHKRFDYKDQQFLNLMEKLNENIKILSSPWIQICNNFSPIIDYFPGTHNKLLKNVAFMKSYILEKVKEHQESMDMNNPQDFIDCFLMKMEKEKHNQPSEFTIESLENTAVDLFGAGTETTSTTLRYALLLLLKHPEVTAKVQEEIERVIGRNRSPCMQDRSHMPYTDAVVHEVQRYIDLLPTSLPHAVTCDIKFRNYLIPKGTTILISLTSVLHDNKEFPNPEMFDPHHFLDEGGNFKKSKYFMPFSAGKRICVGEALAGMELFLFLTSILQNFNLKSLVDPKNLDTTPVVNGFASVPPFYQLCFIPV
Test: Inhibitory effect on CYP coenzyme activity, human liver microsomes
Type: in vitro ADME
Settings: compound 10 μM; human liver microsomes 0.25 mg/mL; substrate diclofenac; 15 minutes
Please assign rule not met whenever CYP2C9 is at or above 60, and rule met whenever it is below.

Known results for molecules:
Cc1cc(NN=C(C#N)C#N)ccc1OCc1ncccn1 = rule not met
N#CC(C#N)=NNc1ccc(OCc2cccnc2)cc1 = rule met
N#CC(C#N)=NNc1ccc(OCc2cn[nH]c2)cc1 = rule met
Cc1cc(NN=C(C#N)C#N)ccc1OCc1cccnc1 = rule met
Cc1cc(NN=C(C#N)C#N)ccc1OCc1cscn1 = rule met

In the record for `Cc1cnc(COc2ccc(NN=C(C#N)C#N)cc2)cn1` , is CYP2C9 less than 60?
rule not met

In the record for `Cc1cc(NN=C(C#N)C#N)ccc1OCc1nc2ccccc2o1` , is CYP2C9 less than 60?
rule met

In the record for `Cc1cnc(C(=O)Nc2ccc(NN=C(C#N)C#N)c(F)c2)cn1` , is CYP2C9 less than 60?
rule not met
